# maps each entry to its protein stability index
B1: USP39 (parent)
chain: FVEKNPTIVNFPITNVDLREYLSE

Variants of: B1
Assay: protein stability index of a GFP-peptide fusion (GPS, HEK-293T) (PSI 1-6); higher = more stable;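 note: lentivirally expressed fusions sorted by FACS into six bins by GFP to DsRed ratio, PSI derived from sequencing read proportions per bin multiplied by bin number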
Settings: c terminus: a fixed tail appended
Observed Property: protein stability index

Query Sequence	Quantitative Result
FVEKNPTIVNRPITNVDLREYLSE [F11R]	2.02
FKEKNPTIVNFPITNVDLREYLSE [V2K]	3.26
NVEKNPTIVNFPITNVDLREYLSE [F1N]	4.08
FVEKNPTMVNFPITNVDLREYLSE [I8M]	1.25
FVEKAPTIVNFPITNVDLREYLSE [N5A]	1.35
FVEKNPTIVNFHITNVDLREYLSE [P12H]	1.47
FVEKNPTIVNFPITNVDLRERLSE [Y21R]	1.57
FMEKNPTIVNFPITNVDLREYLSE [V2M]	3.36
FVEKNPTIVNFPITNVDRREYLSE [L18R]	1.71
FVEKNPTIVNFPITNVDLREYQSE [L22Q]	2.44
FVEKNPTIVNCPITNVDLREYLSE [F11C]	2.01
FTEKNPTIVNFPITNVDLREYLSE [V2T]	3.2
FVEKNPTIVNFPIYNVDLREYLSE [T14Y]	1.97
FVEKNPTIVNFPITGVDLREYLSE [N15G]	1.37
FVEKNPTIVNFPITNVCLREYLSE [D17C]	2.08
FVEKNPTIVNFTITNVDLREYLSE [P12T]	2.28
FVEKNPTIVNFPIANVDLREYLSE [T14A]	1.74
FVEKNPTIVNFPMTNVDLREYLSE [I13M]	2.6
FVEKNPTIVNFPITNPDLREYLSE [V16P]	2.29
FVCKNPTIVNFPITNVDLREYLSE [E3C]	1.52
GVEKNPTIVNFPITNVDLREYLSE [F1G]	3.26
FVEKNPTIVNFPITNVDLREYLSC [E24C]	2.11
